Kindly supply the reported inhibition at 1 µM values for the records listed here.
Target: RORγt (Homo sapiens, UniProt P51449)
Sequence (P51449 1-497 isoform P51449-2, species assumed): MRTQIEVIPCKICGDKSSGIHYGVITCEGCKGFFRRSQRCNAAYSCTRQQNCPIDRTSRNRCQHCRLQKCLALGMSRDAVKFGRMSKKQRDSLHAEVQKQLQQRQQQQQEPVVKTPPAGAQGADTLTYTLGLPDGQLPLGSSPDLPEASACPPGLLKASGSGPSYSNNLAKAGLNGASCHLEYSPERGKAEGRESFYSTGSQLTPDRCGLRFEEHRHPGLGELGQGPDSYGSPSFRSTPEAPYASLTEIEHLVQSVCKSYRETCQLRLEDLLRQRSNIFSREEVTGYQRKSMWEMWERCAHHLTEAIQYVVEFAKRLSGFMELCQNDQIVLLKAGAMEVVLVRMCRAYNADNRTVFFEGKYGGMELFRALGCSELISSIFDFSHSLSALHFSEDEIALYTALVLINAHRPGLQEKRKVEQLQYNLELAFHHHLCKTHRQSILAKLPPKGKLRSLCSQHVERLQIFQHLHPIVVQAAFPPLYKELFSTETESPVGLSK
Assay: RORγt binding test (TR-FRET, fluorescent-labeled cholesterol)
Settings: read-out: binding inhibitory rate (%) of fluorescent-labeled cholesterol to RORγt at test compound 1 μM
One number for each entry, in %.

COCc1ccc([C@@H](NC(=O)CC(F)(F)F)C(=O)Nc2ccc([Si](C)(C)C)c(F)c2)cc1 [Example 93] :: 102

Count: 5. Required value per item: inhibition at 1 µM.
1. COCc1ccc([C@@H](NC(=O)[C@@H]2CNC(=O)C2)C(=O)Nc2ccc([Si](C)(C)C)c(F)c2)cc1 [Example 49]
2. COCc1ccc([C@@H](NC(=O)Cc2nnc(C)o2)C(=O)Nc2cc(F)c([Si](C)(C)C)c(F)c2)cc1 [Example 74]
3. CCC(=O)N[C@@H](C(=O)Nc1ccc([Si](C)(C)C)c(F)c1)c1ccc(COC)cc1 [Example 79]
4. COCc1ccc([C@@H](NC(=O)CC(C)(C)C(=O)O)C(=O)Nc2cc(F)c([Si](C)(C)C)c(F)c2)cc1 [Example 103]
5. COCc1ccc([C@@H](NC(=O)Cc2nnc(C)o2)C(=O)Nc2ccc(C(C)(C)C)c(F)c2)cc1 [Example 105]

Result:
1. 101
2. 101
3. 103
4. 102
5. 101
